Test system: A549
EXPERIMENTAL_PROTOCOL: Cytotoxicity against human A549 cells assessed as growth inhibition after 72 hrs by MTT assay
Type: functional, cell-based
RECORDED_CONDITIONS: A549, 72 h
RECORDED_METRIC: IC50

Query string: Can you look up the measured IC50 of `CC[C@H](C)[C@H](NC(=O)c1nc(C)c(C)nc1C)C(=O)O[C@H]1c2cc3c(cc2[C@@H](c2cc(OC)c(OC)c(OC)c2)[C@H]2C(=O)OC[C@@H]21)OCO3` for me?
Result string: 119 nM

Query string: Cool, now `CNCC(=O)O[C@H]1c2cc3c(cc2[C@@H](c2cc(OC)c(OC)c(OC)c2)[C@H]2C(=O)OC[C@@H]21)OCO3`
Result string: 6.8 nM

Query string: Cool, now `COc1cc([C@@H]2c3cc4c(cc3[C@H](OC(=O)[C@@H]3CCCN3C(=O)OC(C)(C)C)[C@H]3COC(=O)[C@H]23)OCO4)cc(OC)c1OC`
Result string: 148 nM

Query string: Cool, now `COc1cc([C@@H]2c3cc4c(cc3[C@H](OC(=O)[C@H](C)N)[C@H]3COC(=O)[C@H]23)OCO4)cc(OC)c1OC`
Result string: 13.6 nM

Query string: Cool, now `COc1cc([C@@H]2c3cc4c(cc3[C@H](OC(=O)CNC(=O)OC(C)(C)C)[C@H]3COC(=O)[C@H]23)OCO4)cc(OC)c1OC`
Result string: 1.6 nM

Query string: Cool, now `COc1cc([C@@H]2c3cc4c(cc3[C@H](OC(=O)[C@H](C)NC(=O)c3nc(C)c(C)nc3C)[C@H]3COC(=O)[C@H]23)OCO4)cc(OC)c1OC`
Result string: 15.8 nM

Query string: Cool, now `COc1cc([C@@H]2c3cc4c(cc3[C@H](OC(=O)[C@H](CC(C)C)NC(=O)OC(C)(C)C)[C@H]3COC(=O)[C@H]23)OCO4)cc(OC)c1OC`
Result string: 130 nM

Query string: Cool, now `COc1cc([C@@H]2c3cc4c(cc3[C@H](OC(=O)CN)[C@H]3COC(=O)[C@H]23)OCO4)cc(OC)c1OC`
Result string: 12.9 nM

----------
EXPERIMENTAL_PROTOCOL: Selectivity index, ratio of IC50 for human L02 cells to IC50 for human A549 cells
Assay type: toxicity
RECORDED_CONDITIONS: L02 cells versus A549 cells, read-out: Ratio IC50
selectivity ratio by entry:
Answer using only a numeral; do not append any unit.

COc1cc([C@@H]2c3cc4c(cc3[C@H](OC(=O)CN(C)C(=O)OC(C)(C)C)[C@H]3COC(=O)[C@H]23)OCO4)cc(OC)c1OC | 16.9

Query string: Can you look up the measured selectivity ratio of COc1cc([C@@H]2c3cc4c(cc3[C@@H](O[C@@H]3O[C@@H]5CO[C@@H](C)O[C@H]5[C@H](O)[C@H]3O)[C@H]3COC(=O)[C@H]23)OCO4)cc(OC)c1O [ETOPOSIDE] for me?
Result string: 0.5

----------
System: A549
EXPERIMENTAL_PROTOCOL: Cytotoxicity against human A549 cells assessed as growth inhibition after 72 hrs by MTT assay
Format: functional, cell-based
RECORDED_CONDITIONS: A549, 72 h
IC50 by entry:
Number plus unit, in that order.

Please review the entries below; each comes with its answer.
COc1cc([C@@H]2c3cc4c(cc3[C@H](OC(=O)CN(C)C(=O)OC(C)(C)C)[C@H]3COC(=O)[C@H]23)OCO4)cc(OC)c1OC | 9.5 nM
COc1cc([C@@H]2c3cc4c(cc3[C@H](OC(=O)[C@H](C)NC(=O)OC(C)(C)C)[C@H]3COC(=O)[C@H]23)OCO4)cc(OC)c1OC | 17.3 nM
CC[C@H](C)[C@H](N)C(=O)O[C@H]1c2cc3c(cc2[C@@H](c2cc(OC)c(OC)c(OC)c2)[C@H]2C(=O)OC[C@@H]21)OCO3 | 19.2 nM
COc1cc([C@@H]2c3cc4c(cc3[C@H](OC(=O)c3nc(C)c(C)nc3C)[C@H]3COC(=O)[C@H]23)OCO4)cc(OC)c1OC | 76.9 nM

Query string: Can you look up the measured IC50 of `COc1cc([C@@H]2c3cc4c(cc3[C@H](OC(=O)[C@@H]3CCCN3)[C@H]3COC(=O)[C@H]23)OCO4)cc(OC)c1OC` for me?
Result string: 2.8 nM

Query string: Cool, now COc1cc([C@@H]2c3cc4c(cc3[C@@H](O[C@@H]3O[C@@H]5CO[C@@H](C)O[C@H]5[C@H](O)[C@H]3O)[C@H]3COC(=O)[C@H]23)OCO4)cc(OC)c1O [ETOPOSIDE]
Result string: 9470 nM

Data provenance is ChEMBL document CHEMBL4152293.
